Each entry below lists one item and its recorded Trimeric HA Binding RLU value.
Target: recombinant soluble homotrimeric HA of A/Indonesia/5/05 (H5N1) (Influenza A virus A/Indonesia/5/2005 (H5N1))
Assay: HA microarray, BCC supernatant
Conditions: remark: other sources report otherwise

# Binder, Trimeric HA Binding RLU, RLU
data = [
    ("TCN-551 (5243_D01) (antibody, V domains shown) VH: EVQLVQSGSEVKKPGESLKISCKGSGYSFSNYWIGWVRHMPGKGLEWMGIIYPGDSDTRYSPSFQGQVTMSADKSSSTVYLQWSSLKASDTAIYYCARRGGHSFGYGSGGDTHSEFDSWGQGTLVTVSS VL: QSVLTQSPSVSAAPGQKVTISCSGSDSNIGDYFVCWYQHLPGKPPQLLIYENNKRPSGIPDRFSGSKSGTSATLGITGIQTGDEADYYCATWDGSLSAWVFGGGTKLTVL", 53500),
    ("TCN-540 (5060_F05) (antibody, V domains shown) VH: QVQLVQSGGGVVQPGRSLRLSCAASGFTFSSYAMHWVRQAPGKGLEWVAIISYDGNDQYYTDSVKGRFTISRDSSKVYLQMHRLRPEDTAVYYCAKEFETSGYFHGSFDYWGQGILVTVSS VL: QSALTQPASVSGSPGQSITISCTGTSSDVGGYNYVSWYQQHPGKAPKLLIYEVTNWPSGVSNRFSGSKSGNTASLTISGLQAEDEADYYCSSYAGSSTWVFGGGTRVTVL", 31),
]
